Origin of values: the NIST ThermoML archive (doi:10.1021/je900537y)

# ASSAY_TEXT: molar heat capacity at constant pressure
# REPORTED_CONDITIONS: 351.65 K; 101.33 kPa; Liquid; Small sample (50 mg) DSC
Item-by-item account of molar heat capacity at constant pressure
PARAMETER_MEASURED: molar heat capacity at constant pressure (J/K/mol)

> print(dat)
                          compound                        parameter.measured  value.observed
1       NCCCN [1,3-propanediamine]  molar heat capacity at constant pressure          209.78
2     NCCCCCCN [1,6-hexanediamine]  molar heat capacity at constant pressure          307.26
3        NCCN [ethane-1,2-diamine]  molar heat capacity at constant pressure          177.44
4  NCCCCCCCCCN [1,9-diaminononane]  molar heat capacity at constant pressure          406.52
5       NCCCCN [1,4-butanediamine]  molar heat capacity at constant pressure          242.68
6   NCCCCCCCN [1,7-diaminoheptane]  molar heat capacity at constant pressure          341.39

* * *

# ASSAY_TEXT: molar heat capacity at constant pressure
# REPORTED_CONDITIONS: 350.15 K; 101.33 kPa; Liquid; Small sample (50 mg) DSC
PARAMETER_MEASURED: molar heat capacity at constant pressure (J/K/mol)

> print(dat)
                          compound                        parameter.measured  value.observed
1        NCCN [ethane-1,2-diamine]  molar heat capacity at constant pressure           177.3
2       NCCCCN [1,4-butanediamine]  molar heat capacity at constant pressure          242.43
3  NCCCCCCCCCN [1,9-diaminononane]  molar heat capacity at constant pressure          406.08
4     NCCCCCCN [1,6-hexanediamine]  molar heat capacity at constant pressure          306.89
5   NCCCCCCCN [1,7-diaminoheptane]  molar heat capacity at constant pressure          341.02
6       NCCCN [1,3-propanediamine]  molar heat capacity at constant pressure           209.6

* * *

# ASSAY_TEXT: molar heat capacity at constant pressure
# REPORTED_CONDITIONS: 305.15 K; 101.33 kPa; Liquid; Small sample (50 mg) DSC
PARAMETER_MEASURED: molar heat capacity at constant pressure (J/K/mol)

> print(dat)
                         compound  value.observed
1      NCCCN [1,3-propanediamine]          204.36
2       NCCN [ethane-1,2-diamine]          173.17
3  NCCCCCCCN [1,7-diaminoheptane]          333.11
4      NCCCCN [1,4-butanediamine]          237.09

* * *

# ASSAY_TEXT: molar heat capacity at constant pressure
# REPORTED_CONDITIONS: 311.15 K; 101.33 kPa; Liquid; Small sample (50 mg) DSC
Define the label as 1.0 when molar heat capacity at constant pressure is strictly less than 200 J/K/mol and as 0.0 in all remaining cases.

> print(dat)
   smiles.code  assigned.class
1  NCCCCCCCCCN             0.0
2         NCCN             1.0
3    NCCCCCCCN             0.0
4       NCCCCN             0.0
